// provenance: PubChem BioAssay (NCI)

Tested on: NCI-H460 lung
Assay: NCI-60 one-dose screen, 48 h (100 = growth as untreated, 0 = no growth, -100 = all killed)
Settings: 10 µM unless noted
Description: Growth inhibition of the NCI-H460 human Non-Small Cell Lung tumor cell line is measured as a screen for anti-cancer activity. Cells are grown in 96 well plates and exposed to the test compound for 48 hours. Compounds are tested at a single concentration, which is 10^-5 M for most compounds. The reported endpoint is percent growth (GI% or GIPRCNT), where numbers from 0 - 100% represent growth inhibition, and numbers from -100% - 0 represent cell death. […]
This is part of a sample that, as a whole, favours compounds with a hit. Of some 83,000 tested, about 20% had one in any assay.
observed.property: growth (%)
Quick reminder: number only, in %, skip the unit.

molecule="CN(C)c1ncnc2c1ccn2C1OC(CO)C(O)C1O (configuration not stated)" observed_property=growth measured_value=45.6
molecule=COc1ccc(-c2ccc(C)n2-c2ccc(-c3nc4ccccc4s3)cc2)cc1 observed_property=growth measured_value=88.8
molecule=Cn1c2ccc(Br)cc2c2c3c(c4c5ccccc5[nH]c4c21)C(=O)N(O)C3=O observed_property=growth measured_value=-14.8

Q: Consider the molecule N/C(=N\C(N)=N\c1nc2ccccc2s1)c1cccc(Br)c1 and give its measured growth.
Ans: 76.4

---

Measured growth by item
test system: SF-268 CNS; assay: NCI-60 one-dose screen, 48 h (100 = growth as untreated, 0 = no growth, -100 = all killed); settings: 10 µM unless noted
This is part of a sample that, as a whole, favours compounds with a hit. Of some 83,000 tested, about 20% had one in any assay. Activity calls are given as the source filed them. The calls were made as follows: active = growth percent below 10; inactive = the rest.

// below: answered molecules
molecule=O=C(c1c[nH]c(=O)c(-c2ccccc2)c1)c1ccccc1O observed_property=growth measured_value="91.5% (inactive)"
molecule=O=C(O)COc1ccc(-c2cssc2=S)cc1 observed_property=growth measured_value="105% (inactive)"
molecule=COc1cc(-c2nn(C(=O)NS(=O)(=O)c3ccccc3)cc2-c2ccncc2)ccc1Cl observed_property=growth measured_value="58.6% (inactive)"
molecule=COc1ccc(-c2c(N)n[nH]c2-c2cc(OC)c3c(c2)OCCO3)cc1 observed_property=growth measured_value="79.9% (inactive)"
molecule="COc1cc(C2NN=C3c4ccccc4CCC32)cc(OC)c1OC (stereo not drawn)" observed_property=growth measured_value="84% (inactive)"

Q: Look at this molecule and give its reported growth. COc1cc(C2C3=C(COC3=O)Nc3cc4c(cc32)CCC4)cc2c1OCO2 (stereo not drawn)
Ans: 27.9% (inactive)

Q: What does the data say about its growth? Entry: Cc1[nH]c2ccc(F)cc2c1CCNC(=O)C1CCN(C(=O)c2ccccc2)C1 (stereo not drawn)
Ans: 85.1% [25 µM] (inactive)

---

test system: T-47D breast; test: NCI-60 one-dose screen, 48 h (100 = growth as untreated, 0 = no growth, -100 = all killed); conditions: 10 µM unless noted
This is part of a sample that, as a whole, favours compounds with a hit. Of some 83,000 tested, about 20% had one in any assay.
Note to self: growth under 90% means rule met, ties and anything higher get rule not met.

compound="Cc1ccc(N2CCN(C(C)C(N)=O)CC2)cc1 (stereo not given)" assigned_class="rule not met"
compound=Cc1ccc(-c2cc3nc(C(Cl)Cl)nc(-c4cccnc4)n3n2)cc1 assigned_class="rule met"
compound=O=C(Nc1cccc(-n2cc(-c3ccncc3)c(-c3ccc(Cl)c(O)c3)n2)c1)Nc1ccc(Cl)c(C(F)(F)F)c1 assigned_class="rule met"
compound=COc1cc(NC(=O)SC2=NCCS2)cc(OC)c1 assigned_class="rule met"
compound=COc1ccc(/C=C2\Oc3cc(OCCCN4CCCC4)ccc3C2=O)cc1 assigned_class="rule not met"

Q: hey, is growth for Nc1nc(Nc2cc(Cl)cc(Cl)c2)nn1S(=O)(=O)c1ccc2ccccc2c1 lower than 90% or not?
Ans: rule met

Q: Is 90% strictly greater than the compound's reported growth? compound: O=C1Nc2ccc(Cl)cc2C12Nc1cc(Cl)ccc1S2 (stereo not given)
Ans: rule met

Q: Decide: growth of Nc1ncnc2c1c(-c1ccc(Oc3ccccc3)cc1)nn2C[C@@H]1SSC[C@@H]1O strictly below 90%?
Ans: rule met

Q: Please determine if O=C(NNC(=S)Nc1ccccc1)c1cc2ccc1CCc1ccc(cc1)CC2 is below 90% in terms of growth.
Ans: rule met

Q: Find out if reported growth for Cn1ccc(Nc2nccc(Oc3ccc(C(=O)Nc4cccc(F)c4)c(Cl)c3)n2)c1 is less than 90%
Ans: rule met

Q: Identify whether the compound CC(C)(C)N1CCC1C(N)=O (stereo not given) records growth below 90%.
Ans: rule not met

Q: Threshold test, growth < 90%: COc1cc(NC(N)=NCCC(C)(C)Oc2ccc(C(F)(F)F)cc2)ncc1C#N
Ans: rule met

Q: Here's an entry: COc1ccc(C2=Nn3c(nnc3-n3nc(C)cc3C)SC2)cc1 . Is its growth below 90%?
Ans: rule met

Q: Consider the compound O=S(=O)(NCCNc1nccc(-c2c(-c3cccc(O)c3)nc3sccn23)n1)c1ccc(F)cc1 . Is its growth strictly less than 90%?
Ans: rule met

---

test system: IGROV1 ovarian; experiment: NCI-60 one-dose screen, 48 h (100 = growth as untreated, 0 = no growth, -100 = all killed); conditions: 10 µM unless noted
Compounds without any hit were thinned out: in the full panel of roughly 83,000, 20% have a hit.
Values of growth greater than or equal to 90% map to 1.0; values below map to 0.0.

Examples with answers:
compound="CCCCCCCCCCCCCCCCCCNC(=O)[C@H]1CSC(c2ccc(OC)cc2O)N1 (some centres undefined)" assigned_class=0.0
compound=Cc1ccc(S(=O)(=O)NC(=O)n2cc(-c3ccncc3)c(-c3ccc(Cl)c(O)c3)n2)cc1 assigned_class=1.0
compound=O=C(O)/C=C/C(=O)c1ccc(Cl)cc1 assigned_class=1.0
compound=CCCCCCN1CSC(=S)N(CCCCCC)C1 assigned_class=1.0
compound="O=c1ccn(C2CC(O)C(O)C(CO)O2)c(=O)[nH]1 (centres undefined)" assigned_class=1.0

Q: Tell me whether growth is at least 90% here: CCC(=O)OC1=CN2C(=NC(c3ccc(N)cc3)=CC2c2cc(OC)c(OC)c(OC)c2)S1 (centres undefined)
Ans: 0.0

Q: Does growth meet or surpass 90% for COc1cc2c(cc1OCCCCCn1c3ccccc3c3ccccc31)N=C[C@@H]1CCCN1C2=O ?
Ans: 0.0

Q: Identify whether the reported growth of the following compound is 90% or greater: CCN(CC)c1ccc(CNc2ccnc3ccccc23)cc1
Ans: 0.0

Q: Determine whether this compound has growth no lower than 90%: CN1C(=O)N(C)C2C1NN=c1s/c(=C\C=C\c3ccccc3)c(=O)n12 (centres undefined)
Ans: 0.0

Q: Is growth for CCOC(=O)c1ccc2c(c1)c1c(C)c3cccnc3c(C)c1n2C at or above 90%?
Ans: 0.0

Q: Say whether CCOc1cc2c(Cl)ncnc2c(OCC)c1OCC shows growth of 90% or more.
Ans: 0.0

Q: Record CCOC(=O)/C(C#N)=C1/C(=O)Nc2ccccc21 ; criterion: growth no lower than 90%. Met?
Ans: 1.0

Q: growth >= 90% for C=C1C(=O)O[C@H]2[C@H]1CC/C(Cn1cc(CNC(=O)Cc3cn(C(=O)c4ccc(Cl)cc4)c4ccc(OC)cc34)nn1)=C\CC[C@@]1(C)O[C@@H]21 ?
Ans: 0.0

---

test system: BT-549 breast; test: NCI-60 one-dose screen, 48 h; conditions: 10 µM unless noted
Compounds without any hit were thinned out: in the full panel of roughly 83,000, 20% have a hit. The source made the active and inactive calls. Rule for the calls: active = growth percent below 10; inactive = the rest.
// allowed return values: active, inactive

Q: Call for entry COc1ccc(S(=O)(=O)Nc2cc(/C=C\c3cc(OC)c(OC)c(OC)c3)cc(OC)c2OC)cc1 :
Ans: inactive

Q: Per the assay record, what outcome was assigned to COc1cc(-c2ncn(/C=C\C(=O)OC(C)C)n2)cc(C(F)(F)F)c1 ?
Ans: active

Q: What is the recorded call for this compound in the test? CNc1ccc(Br)c2c1C(=O)c1ccccc1C2=O
Ans: inactive

Q: Can you look up the reported call for COc1ccc2c(c1)cn1c3ccc(OC)cc3[nH]c(=O)c21 for me?
Ans: active

Q: Recorded test call requested for CC(NNC(C)c1ccccc1)c1ccccc1 (stereo unspecified)
Ans: inactive

Q: For this compound, state the assay outcome: N#Cc1c(-c2ccccc2)cc(-c2ccccc2)n(CC(=O)NO)c1=O
Ans: active

---

// growth lookup, one value per entry
tested on: IGROV1 ovarian; experiment: NCI-60 one-dose screen, 48 h (100 = growth as untreated, 0 = no growth, -100 = all killed); conditions: 10 µM unless noted
About 83,000 compounds went through this panel and 20% of them were active in at least one assay; those are over-represented in the sample as a whole.
Answer with a number only, understood to be in %.

Sample records with growth:
molecule=COc1ccc(-c2c(N)n[nH]c2-c2cc(OC)c(OC)c(OC)c2)cc1 measured_value=26.9
molecule=CCOC(=O)CN1/C(=N/c2sc3c(c2C(=O)OCC)CCN(C(=O)OCC)C3)SC(=O)/C1=C\C(=O)OC measured_value=92.1
molecule=CN(C)CCN1C(=O)c2ccc3c4c(ccc(c24)C1=O)C(=O)N(CCN=C=S)C3=O measured_value=-64.3
molecule=Cc1ccc(-c2nc(C#N)c(S(=O)(=O)n3nc(-c4ccccc4)cc3N)o2)cc1 measured_value=101
molecule="C/C=C(\\C)C(C(=O)NC1CCCCC1)N(C(=O)C1CCc2cc(F)ccc2O1)c1ccc(Cl)cc1 (stereo not given)" measured_value=103

Q: # query: growth of entry O=C1/C(=C/c2ccc(Cl)cc2)CN(C(=O)CCN2CCC(=NO)CC2)C/C1=C\c1ccc(Cl)cc1
Ans: -67.2

Q: Entry under review: Cc1nn(-c2ccc([N+](=O)[O-])cc2)c2ncnc(NCCc3ccccc3)c12 . Reported growth?
Ans: 99.2

Q: Please give the measured growth for this molecule: CC(C)(C)n1cc(-c2ccnc(NCCCNS(=O)(=O)c3ccc(F)cc3)c2)c(-c2cccc(O)c2)n1
Ans: 51.1

Q: Bench note: what growth did O=C(NCc1cn(Cc2cccc(Oc3ccccc3)c2)nn1)c1cccnc1Nc1ccc(F)cc1 show?
Ans: 79.4

Q: # growth lookup, item COc1ccc2[nH]c(=O)c3c4ccccc4cn3c2c1
Ans: 16.8
